fraction unbound values, listed per item
METHOD_DESCRIPTION: Protein binding in human plasma
Format: ADME, cell-free
COND: read-out: PPB (converted)
MEASURED_PARAMETER: fraction unbound

[[record]]
compound = "CCNC(=O)Nc1cc(Nc2cccc(C)c2)c(C(=O)Nc2cccc(C)c2)cn1"
measured_parameter = "fraction unbound"
endpoint_value = 0.001

[[record]]
compound = "CCNC(=O)Nc1cc(Nc2ccc(OC)cc2)c(C(=O)Nc2cccnc2)cn1"
measured_parameter = "fraction unbound"
endpoint_value = 0.028

[[record]]
compound = "CCNC(=O)Nc1cc(-n2cccn2)c(C(=O)Nc2cccnc2)cn1"
measured_parameter = "fraction unbound"
endpoint_value = 0.095

[[record]]
compound = "CCNC(=O)Nc1cc(N2CCC(N)C2)c(C(=O)Nc2cccnc2)cn1 (centres undefined)"
measured_parameter = "fraction unbound"
endpoint_value = 0.498

